Target: T1, GIPC1, O14908
T1 sequence (O14908 128-223, limits assumed, looked up): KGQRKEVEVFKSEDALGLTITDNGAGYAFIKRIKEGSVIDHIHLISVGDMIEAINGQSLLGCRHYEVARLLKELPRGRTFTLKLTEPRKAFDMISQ
Assay: holdup assay
Parameters: key: below the threshold = too weak to quantify, mostly under pKd 3.1 to 4
Conditions: plain residues with an end cap or a label only (N-terminal biotin on a linker: ttds)
VALUE_TYPE: pKd
Numbers only.

                          binder  recorded_measurement
0  SSRTRRETQL [HPV16-E6, P03126]                  4.13

Now, please, on to the next binder.
Exercise: Look up pKd: RSLEEEESQL [GRASP, Q7Z6J2]
Solution: 4.1
